- Procedure summary: Volume of distribution at steady state in rat at 1 mg/kg, iv or 1 mg/kg,po
- Type: ADME, organism-based
- Test context: in vivo, read-out: Vdss
Readout kind: Vd (L/kg)

# Structure smiles, Uom, Vd
records = [
    ("COCc1cc(-c2cn(C3COC3)c3cnc(NC(C)=O)cc23)nc([C@]2(OC)CCOC2)c1", "L/kg", 1.9),
]

(P) CO[C@@]1(c2cc(O[C@@H](C)CCO)cc(-c3cn(C)c4cnc(NC(C)=O)cc34)n2)CCOC1
(Q) CO[C@@]1(c2cc(OCC[C@@H](C)O)cc(-c3cn(C)c4cnc(NC(C)=O)cc34)n2)CCOC1
Prompt line: So which one has the bigger Vd here, P or Q ? To answer, give the label that identifies your chosen option.
Response line: Q
